Known composite z-score of a selection of compounds
Test: binders of probe aFGF10 on microarray, primary screen, stem cell growth factor project, biochemical, small-molecule microarray, fluorescence 635/667 (AID 1071);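 also: score merges 667 nm spot intensity and signal to noise from triplicate slides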
Details: higher = more signal
METRIC NAME: composite z-score

[
  {
    "COMPOUND": "C=CCC(OC(C)=O)[C@@H]1[C@@H](N(Cc2ccc(-c3ccccc3)cc2)C(=O)c2cccc3ccccc23)c2cc(OCCCO)ccc2N1C(=O)c1ccc2ccccc2c1 (stereo partly specified)",
    "READOUT NUMBER": 0.246
  },
  {
    "COMPOUND": "CC(C)C(=C=CC[C@@H](O)c1cccc(OCCO)c1)CCO",
    "READOUT NUMBER": 0.742
  },
  {
    "COMPOUND": "COc1cc2c(cc1O)C(c1ccc(CN3CCCC3)cc1)N(Cc1ccc([N+](=O)[O-])o1)CC2 (stereo unspecified)",
    "READOUT NUMBER": 0.0497
  },
  {
    "COMPOUND": "CCOC(=O)C1=CCC(c2cc3ccccc3[nH]2)N(S(=O)(=O)c2ccccc2[N+](=O)[O-])C1 (stereo unspecified)",
    "READOUT NUMBER": 0.465
  },
  {
    "COMPOUND": "COCCCNC(=O)[C@@H]1c2ccccc2C(=O)N(Cc2cc(C(F)(F)F)cc(C(F)(F)F)c2)[C@H]1c1ccc(CO)cc1",
    "READOUT NUMBER": -0.568
  },
  {
    "COMPOUND": "O=C1C2C=CC(C(O)C(c3ccccc3)c3ccccc3)N(Nc3ccccc3)C2C(=O)N1c1ccccc1 (stereo unspecified)",
    "READOUT NUMBER": 0.244
  }
]

----------
Molecular target: Neurogenic locus notch homolog protein 2 (Homo sapiens) (UniProt Q04721)
Sequence (Q04721 whole entry, looked up): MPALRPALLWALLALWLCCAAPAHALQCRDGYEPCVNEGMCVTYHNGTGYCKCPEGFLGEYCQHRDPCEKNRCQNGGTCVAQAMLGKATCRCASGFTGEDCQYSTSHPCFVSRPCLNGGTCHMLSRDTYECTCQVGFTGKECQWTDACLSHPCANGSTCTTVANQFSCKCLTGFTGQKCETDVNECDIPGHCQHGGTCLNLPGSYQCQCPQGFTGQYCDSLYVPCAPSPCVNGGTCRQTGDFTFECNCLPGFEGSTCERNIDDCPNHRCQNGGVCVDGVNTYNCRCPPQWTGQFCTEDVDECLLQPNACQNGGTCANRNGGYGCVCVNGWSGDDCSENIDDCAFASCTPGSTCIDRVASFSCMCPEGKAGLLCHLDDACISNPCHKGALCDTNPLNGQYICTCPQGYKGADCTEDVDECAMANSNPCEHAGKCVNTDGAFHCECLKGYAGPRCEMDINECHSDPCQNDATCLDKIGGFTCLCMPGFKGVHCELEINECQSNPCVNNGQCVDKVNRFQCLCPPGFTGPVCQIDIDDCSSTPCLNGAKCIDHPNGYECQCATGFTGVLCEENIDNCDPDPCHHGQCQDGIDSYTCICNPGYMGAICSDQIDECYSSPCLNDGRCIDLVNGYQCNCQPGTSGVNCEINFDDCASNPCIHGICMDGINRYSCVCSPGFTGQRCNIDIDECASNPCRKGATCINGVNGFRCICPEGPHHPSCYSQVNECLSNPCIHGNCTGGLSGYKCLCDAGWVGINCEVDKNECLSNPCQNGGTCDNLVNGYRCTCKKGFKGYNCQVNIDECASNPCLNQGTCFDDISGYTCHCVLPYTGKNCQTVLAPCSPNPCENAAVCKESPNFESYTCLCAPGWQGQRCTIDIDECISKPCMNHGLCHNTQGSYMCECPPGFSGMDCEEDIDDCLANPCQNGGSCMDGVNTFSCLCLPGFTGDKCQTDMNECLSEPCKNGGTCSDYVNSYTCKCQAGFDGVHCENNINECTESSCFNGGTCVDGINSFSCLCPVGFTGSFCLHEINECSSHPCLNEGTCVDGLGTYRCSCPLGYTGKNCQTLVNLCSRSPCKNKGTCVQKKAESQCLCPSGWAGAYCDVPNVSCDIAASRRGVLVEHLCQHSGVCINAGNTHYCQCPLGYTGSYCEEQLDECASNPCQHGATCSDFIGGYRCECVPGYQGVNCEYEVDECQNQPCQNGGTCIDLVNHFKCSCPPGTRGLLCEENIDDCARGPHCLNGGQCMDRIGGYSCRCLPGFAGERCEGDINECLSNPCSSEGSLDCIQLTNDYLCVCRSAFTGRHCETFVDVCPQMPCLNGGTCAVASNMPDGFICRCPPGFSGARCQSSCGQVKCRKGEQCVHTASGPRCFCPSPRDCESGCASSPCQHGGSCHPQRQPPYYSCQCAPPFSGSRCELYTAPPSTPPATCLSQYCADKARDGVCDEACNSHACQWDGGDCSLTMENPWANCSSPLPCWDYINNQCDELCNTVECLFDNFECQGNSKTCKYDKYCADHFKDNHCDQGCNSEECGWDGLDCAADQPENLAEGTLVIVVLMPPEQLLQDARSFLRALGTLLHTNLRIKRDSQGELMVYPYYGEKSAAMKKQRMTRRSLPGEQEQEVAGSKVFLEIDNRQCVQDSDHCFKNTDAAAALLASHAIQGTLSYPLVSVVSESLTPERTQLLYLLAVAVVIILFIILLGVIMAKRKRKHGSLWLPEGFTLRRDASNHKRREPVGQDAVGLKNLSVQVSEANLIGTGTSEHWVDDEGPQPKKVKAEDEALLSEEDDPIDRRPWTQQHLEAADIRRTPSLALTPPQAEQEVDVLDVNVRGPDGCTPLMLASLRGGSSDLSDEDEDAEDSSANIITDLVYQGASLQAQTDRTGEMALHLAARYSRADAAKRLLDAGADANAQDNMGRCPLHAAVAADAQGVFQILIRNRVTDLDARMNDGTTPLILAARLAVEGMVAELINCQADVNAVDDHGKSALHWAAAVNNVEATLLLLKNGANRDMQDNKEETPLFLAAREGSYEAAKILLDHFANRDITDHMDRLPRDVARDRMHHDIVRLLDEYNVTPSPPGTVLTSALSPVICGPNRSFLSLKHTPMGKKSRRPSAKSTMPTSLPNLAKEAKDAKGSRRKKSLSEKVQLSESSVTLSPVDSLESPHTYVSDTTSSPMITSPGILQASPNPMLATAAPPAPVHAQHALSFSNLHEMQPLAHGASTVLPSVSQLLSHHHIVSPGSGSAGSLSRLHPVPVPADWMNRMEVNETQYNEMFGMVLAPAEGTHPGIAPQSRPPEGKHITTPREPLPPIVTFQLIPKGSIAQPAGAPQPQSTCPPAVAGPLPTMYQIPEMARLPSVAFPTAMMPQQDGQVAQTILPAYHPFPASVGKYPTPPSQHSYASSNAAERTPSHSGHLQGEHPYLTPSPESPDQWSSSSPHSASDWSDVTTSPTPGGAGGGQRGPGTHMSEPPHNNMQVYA
Experiment: Notch2 binders on small-molecule microarrays, primary screen, biochemical, small-molecule microarray, 635 nm fluorescence, stem cell growth factors (AID 1073)
Conditions: Notch2 binding, higher = more signal
Known composite z-score of a selection of molecules

[
  {
    "MOLECULE": "CCOC(=O)C[C@H]1[C@H](OC(=O)c2cc3ccccc3oc2=O)[C@@H](NC(=O)C2CCCCC2)c2cc(OCCCO)ccc2N1C(=O)Cc1ccc(OC)cc1",
    "SYSTEM NAME": "Neurogenic locus notch homolog protein 2 (Homo sapiens) (UniProt Q04721)",
    "composite z-score": 0.54
  },
  {
    "MOLECULE": "CCN(CC)c1ccc(N2CC=CC34O[C@@H]5C=CCOC(=O)[C@@H]5[C@H]3C(=O)N(CCCO)[C@@H]4C2=O)cc1 (some centres not stated)",
    "SYSTEM NAME": "Neurogenic locus notch homolog protein 2 (Homo sapiens) (UniProt Q04721)",
    "composite z-score": -1.04
  },
  {
    "MOLECULE": "C=C(CCCC)C(=O)CC[C@H](OC(C)=O)c1ccccc1OCCO",
    "SYSTEM NAME": "Neurogenic locus notch homolog protein 2 (Homo sapiens) (UniProt Q04721)",
    "composite z-score": 0.435
  },
  {
    "MOLECULE": "COCCOC(=O)N1C(=O)[C@@]2(c3ccccc31)[C@H](C(=O)N1CCCCCCC1)[C@H]1C(=O)O[C@H](c3ccccc3)[C@H](c3ccccc3)N1[C@@H]2c1ccc(O)cc1",
    "SYSTEM NAME": "Neurogenic locus notch homolog protein 2 (Homo sapiens) (UniProt Q04721)",
    "composite z-score": 1.08
  },
  {
    "MOLECULE": "C=CCC(OC(C)=O)[C@@H]1[C@@H](N(Cc2cccc3ccccc23)C(=O)c2ccc(-c3ccccc3)cc2)c2cc(OCCCO)ccc2N1C(=O)c1ccc2ccccc2n1 (some centres not stated)",
    "SYSTEM NAME": "Neurogenic locus notch homolog protein 2 (Homo sapiens) (UniProt Q04721)",
    "composite z-score": 0.285
  },
  {
    "MOLECULE": "C=C(C(=O)CC[C@@H](OC(C)=O)c1cccc(OCCO)c1)C(C)C",
    "SYSTEM NAME": "Neurogenic locus notch homolog protein 2 (Homo sapiens) (UniProt Q04721)",
    "composite z-score": -0.768
  },
  {
    "MOLECULE": "CCCCC(=C=CC[C@@H](O)c1cccc(OCCO)c1)C[C@@H](O)COCc1ccccc1",
    "SYSTEM NAME": "Neurogenic locus notch homolog protein 2 (Homo sapiens) (UniProt Q04721)",
    "composite z-score": -0.546
  },
  {
    "MOLECULE": "Cc1ccc(F)cc1S(=O)(=O)N[C@@H]1CCN(Cc2ccc3[nH]ccc3c2)C1",
    "SYSTEM NAME": "Neurogenic locus notch homolog protein 2 (Homo sapiens) (UniProt Q04721)",
    "composite z-score": 0.523
  },
  {
    "MOLECULE": "[N-]=[N+]=NCc1ccccc1[C@@H]1OC(c2ccc(OCCCO)cc2)=N[C@]1(Cc1ccccc1)C(=O)NCc1ccccc1",
    "SYSTEM NAME": "Neurogenic locus notch homolog protein 2 (Homo sapiens) (UniProt Q04721)",
    "composite z-score": 1.3
  },
  {
    "MOLECULE": "C=CCC(OC(C)=O)[C@@H]1[C@@H](N(Cc2ccc(-c3cccc(C(F)(F)F)c3)o2)C(=O)Cc2ccc(OC)cc2)c2cc(OCCCO)ccc2N1C(=O)c1ccc2ccccc2n1 (some centres not stated)",
    "SYSTEM NAME": "Neurogenic locus notch homolog protein 2 (Homo sapiens) (UniProt Q04721)",
    "composite z-score": -0.485
  },
  {
    "MOLECULE": "COCCOC(=O)N1C(=O)[C@@]2(c3cc(C#CCC(C(=O)OC)C(=O)OC)ccc31)[C@H](C(=O)N1CCCCCCC1)[C@H]1C(=O)O[C@H](c3ccccc3)[C@H](c3ccccc3)N1[C@@H]2c1ccccc1OCCO",
    "SYSTEM NAME": "Neurogenic locus notch homolog protein 2 (Homo sapiens) (UniProt Q04721)",
    "composite z-score": 1.39
  },
  {
    "MOLECULE": "CCCCCCCCCCC(O)C1C=CC2C(=O)N(C)C(=O)C2N1N1CCCCC1 (configuration not stated)",
    "SYSTEM NAME": "Neurogenic locus notch homolog protein 2 (Homo sapiens) (UniProt Q04721)",
    "composite z-score": -1.96
  },
  {
    "MOLECULE": "CCOC(=O)C1=CC[C@@H](c2ccccc2Cl)N(S(=O)(=O)c2ccc(C)cc2)[C@H]1c1cccc(OC)c1",
    "SYSTEM NAME": "Neurogenic locus notch homolog protein 2 (Homo sapiens) (UniProt Q04721)",
    "composite z-score": 0.408
  },
  {
    "MOLECULE": "Cc1ccc(F)cc1S(=O)(=O)N[C@@H]1CCN(Cc2ccc3c(c2)OCO3)C1",
    "SYSTEM NAME": "Neurogenic locus notch homolog protein 2 (Homo sapiens) (UniProt Q04721)",
    "composite z-score": -0.898
  },
  {
    "MOLECULE": "COCCCNC(=O)[C@@]1(Sc2ccc(C)cc2)CC(=O)N(C2CCCCC2)[C@@H]1c1ccc(CO)cc1I",
    "SYSTEM NAME": "Neurogenic locus notch homolog protein 2 (Homo sapiens) (UniProt Q04721)",
    "composite z-score": 1.02
  },
  {
    "MOLECULE": "CCCCCN1CC=CC23O[C@@H]4C=CCOC(=O)[C@@H]4[C@H]2C(=O)N(CCCCCO)[C@@H]3C1=O (some centres not stated)",
    "SYSTEM NAME": "Neurogenic locus notch homolog protein 2 (Homo sapiens) (UniProt Q04721)",
    "composite z-score": -1.26
  },
  {
    "MOLECULE": "COCCOC(=O)N1C(=O)[C@@]2(c3cc(C#CCCO)ccc31)[C@H](c1ccccc1OCCO)N1[C@H](c3ccccc3)[C@H](c3ccccc3)OC(=O)[C@H]1[C@@H]2C(=O)N1CCc2cc(OC)c(OC)cc2C1",
    "SYSTEM NAME": "Neurogenic locus notch homolog protein 2 (Homo sapiens) (UniProt Q04721)",
    "composite z-score": 1.04
  }
]
